Each recorded value in this set is attributed to ChEMBL document CHEMBL5329194.

Experiment: Drug distribution in KM mouse pancreas xenografted with human HCT-116 cells measured after 1 hr block group
Format: ADME, tissue-based
Conditions: read-out: Drug uptake
observable: tissue uptake at 1 h (%ID/g)
Please reply with the bare figure in %ID/g and do not write the unit itself.

tissue uptake at 1 h reading for "[18F]CCOCCOCCOc1nc(-c2ccc(Br)cc2)nc2ccccc12" : 7.53

----------
Test: Drug distribution in KM mouse blood xenografted with human HCT-116 cells measured after 1 hr
Assay type: ADME, tissue-based
Conditions: read-out: Drug uptake
observable: tissue uptake at 1 h (%ID/g)
The response must be a number in %ID/g with no trailing unit.

Sample "[18F]CCOCCOCCOc1nc(-c2ccc(Br)cc2)nc2ccccc12" ; tissue uptake at 1 h observed: 4.15

----------
Test: Drug distribution in KM mouse stomach xenografted with human HCT-116 cells measured after 1 hr block group
Assay type: ADME, tissue-based
Conditions: read-out: Drug uptake
observable: tissue uptake at 1 h (%ID/g)
Give just the numeric value; %ID/g need not be written.

Lab book: tissue uptake at 1 h of "[18F]CCOCCOCCOc1nc(-c2ccc(Br)cc2)nc2ccccc12" noted as 1.6

----------
Test: Drug distribution in KM mouse kidney xenografted with human HCT-116 cells measured after 1 hr block group
Format: ADME, tissue-based
Settings: read-out: Drug uptake
observable: tissue uptake at 1 h (%ID/g)
Just the number in %ID/g, nothing appended.

Consider "[18F]CCOCCOCCOc1nc(-c2ccc(Br)cc2)nc2ccccc12" . Its measured tissue uptake at 1 h is 7.65

----------
Experiment: Drug distribution in KM mouse lung xenografted with human HCT-116 cells measured after 1 hr
Type: ADME, tissue-based
Settings: read-out: Drug uptake
observable: tissue uptake at 1 h (%ID/g)
The figure you give is taken to be in %ID/g; do not add the unit.

The measured tissue uptake at 1 h associated with "[18F]CCOCCOCCOc1nc(-c2ccc(Br)cc2)nc2ccccc12" reads 5.66

----------
Test: Drug distribution in KM mouse liver xenografted with human HCT-116 cells measured after 1 hr
Type: ADME, tissue-based
Conditions: read-out: Drug uptake
observable: tissue uptake at 1 h (%ID/g)
State just the number; it will be interpreted in %ID/g.

Form field tissue uptake at 1 h, entry "[18F]CCOCCOCCOc1nc(-c2ccc(Br)cc2)nc2ccccc12" : 9.99

----------
Assay: Drug accumulation in bone of KM mouse measured after 2 hrs
Assay type: ADME, tissue-based, Bone element
Settings: read-out: Drug uptake
observable: tissue uptake at 2 h

For "[18F]CCOCCOCCOc1nc(-c2ccc(Br)cc2)nc2ccccc12" the compound record lists tissue uptake at 2 h as 5.62 %ID/g

----------
Assay: Drug distribution in KM mouse intestine xenografted with human HCT-116 cells measured after 1 hr
Type: ADME, tissue-based
Settings: read-out: Drug uptake
observable: tissue uptake at 1 h
Your reply should be a number followed by the unit it is expressed in.

tissue uptake at 1 h in this record for "[18F]CCOCCOCCOc1nc(-c2ccc(Br)cc2)nc2ccccc12" : 8.84 %ID/g

----------
Target: Cytochrome P450 1B1 (Homo sapiens, UniProt Q16678)
Sequence (Q16678 whole entry): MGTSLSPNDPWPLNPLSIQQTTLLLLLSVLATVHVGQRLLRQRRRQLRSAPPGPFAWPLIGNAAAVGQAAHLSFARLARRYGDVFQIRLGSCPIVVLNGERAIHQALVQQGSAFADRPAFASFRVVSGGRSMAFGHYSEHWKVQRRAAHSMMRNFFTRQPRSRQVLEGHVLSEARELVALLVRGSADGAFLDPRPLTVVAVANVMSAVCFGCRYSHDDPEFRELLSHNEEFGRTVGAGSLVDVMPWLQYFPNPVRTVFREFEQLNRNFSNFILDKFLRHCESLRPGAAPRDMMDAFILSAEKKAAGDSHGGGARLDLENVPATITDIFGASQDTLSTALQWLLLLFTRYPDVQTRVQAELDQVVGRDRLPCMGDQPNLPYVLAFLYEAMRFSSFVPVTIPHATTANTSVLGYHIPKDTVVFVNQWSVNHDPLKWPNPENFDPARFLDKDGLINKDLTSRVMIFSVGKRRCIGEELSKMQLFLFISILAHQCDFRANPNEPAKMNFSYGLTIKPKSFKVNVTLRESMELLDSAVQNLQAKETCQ
observable: IC50 (nM)
Write the number in nM without appending the unit.

Short answer for "FCCOCCOCCOc1nc(-c2ccc(Br)cc2)nc2ccccc12" : IC50 was 48.2

----------
Test: Drug accumulation in liver of KM mouse measured after 10 mins
Format: ADME, tissue-based
Conditions: read-out: Drug uptake
observable: tissue uptake at 10 min (%ID/g)
Response body: numeric value in %ID/g, unit text excluded.

# tissue uptake at 10 min (molecule: "[18F]CCOCCOCCOc1nc(-c2ccc(Br)cc2)nc2ccccc12" ) is 10.2

----------
Assay: Drug distribution in KM mouse kidney xenografted with human HCT-116 cells measured after 1 hr
Assay type: ADME, tissue-based
Settings: read-out: Drug uptake
observable: tissue uptake at 1 h (%ID/g)
Kindly answer with a numeric value in %ID/g, unit omitted.

tissue uptake at 1 h for "[18F]CCOCCOCCOc1nc(-c2ccc(Br)cc2)nc2ccccc12" is 8.49

----------
Test: Drug distribution in KM mouse lung xenografted with human HCT-116 cells measured after 1 hr block group
Format: ADME, tissue-based
Details: read-out: Drug uptake
observable: tissue uptake at 1 h (%ID/g)
Supply the numeric figure in %ID/g, leaving out any unit text.

tissue uptake at 1 h measured on "[18F]CCOCCOCCOc1nc(-c2ccc(Br)cc2)nc2ccccc12" = 5.42

----------
For each record, write down the corresponding pIC50.
Target: UniProt P04798
Sequence (P04798 whole entry): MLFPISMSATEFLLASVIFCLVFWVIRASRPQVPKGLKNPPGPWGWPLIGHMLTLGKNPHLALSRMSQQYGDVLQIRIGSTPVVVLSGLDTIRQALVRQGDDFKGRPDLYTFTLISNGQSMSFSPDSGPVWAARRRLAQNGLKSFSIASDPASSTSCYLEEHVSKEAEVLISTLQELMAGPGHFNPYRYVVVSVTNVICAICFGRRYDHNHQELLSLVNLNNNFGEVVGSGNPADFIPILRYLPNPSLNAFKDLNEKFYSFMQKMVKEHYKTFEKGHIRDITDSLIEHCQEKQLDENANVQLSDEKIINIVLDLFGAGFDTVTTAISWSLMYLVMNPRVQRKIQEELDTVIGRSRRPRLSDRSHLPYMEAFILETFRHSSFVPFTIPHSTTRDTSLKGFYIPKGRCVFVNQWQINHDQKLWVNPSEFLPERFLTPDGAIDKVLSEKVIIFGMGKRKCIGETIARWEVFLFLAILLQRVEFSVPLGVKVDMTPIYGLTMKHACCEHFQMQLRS
pIC50: −log10 of the molar value.

Field pIC50 (entry "FCCOc1nc(-c2ccc(Br)cc2)nc2ccccc12" ) reads < 6.00

The molecule listed as "O=c1[nH]c(-c2ccc(OCCF)cc2)nc2ccccc12" shows pIC50 equal to < 6.00

----------
Assay: Drug distribution in KM mouse intestine xenografted with human HCT-116 cells measured after 1 hrs block group
Assay type: ADME, tissue-based
Details: read-out: Drug uptake
observable: tissue uptake at 1 h (%ID/g)
Give the number; %ID/g is assumed, so skip it.

The reported tissue uptake at 1 h of the compound "[18F]CCOCCOCCOc1nc(-c2ccc(Br)cc2)nc2ccccc12" was 7.1

----------
Test: Lipophilicity, logP of compound
Type: physicochemical
Details: octanol/water
observable: logP
Enter the number alone.

Data point: "[18F]CCOCCOCCOc1nc(-c2ccc(Br)cc2)nc2ccccc12" ; logP = 3.88

----------
Experiment: Drug distribution in KM mouse spleen xenografted with human HCT-116 cells measured after 1 hr block group
Type: ADME, tissue-based
Conditions: read-out: Drug uptake
observable: tissue uptake at 1 h (%ID/g)
Give the quantity in %ID/g, number only.

Just so you know, measured tissue uptake at 1 h for "[18F]CCOCCOCCOc1nc(-c2ccc(Br)cc2)nc2ccccc12" came out at 5.62

----------
Assay: Drug distribution in KM mouse heart xenografted with human HCT-116 cells measured after 1 hr
Assay type: ADME, tissue-based
Details: read-out: Drug uptake
observable: tissue uptake at 1 h (%ID/g)
Report the value in %ID/g with no unit label.

Documented tissue uptake at 1 h of "[18F]CCOCCOCCOc1nc(-c2ccc(Br)cc2)nc2ccccc12" : 6.4

----------
Assay: Drug accumulation in brain of KM mouse measured after 10 mins
Type: ADME, tissue-based
Conditions: read-out: Drug uptake
observable: tissue uptake at 10 min (%ID/g)
Supply the numeric figure in %ID/g, leaving out any unit text.

The reported value for "[18F]CCOCCOCCOc1nc(-c2ccc(Br)cc2)nc2ccccc12" in terms of tissue uptake at 10 min is 7.94

----------
Test: Ratio of drug level in tumor to blood in KM mouse xenografted with human HCT-116 cells measured after 1 hr
Assay type: ADME, tissue-based
observable: Kp at 1 h
# print the numeric value only

Sample "[18F]CCOCCOCCOc1nc(-c2ccc(Br)cc2)nc2ccccc12" ; Kp at 1 h observed: 1.16
